type: in vivo, human; conditions: male, human, plasma, po, 9.6 g
Please mark Satisfied if the recorded half-life is equal to or greater than 10 h, and Not satisfied if it falls below.

Below are worked cases with known answers.
O=c1ccc2cc3ccoc3c(O)c2o1
Not satisfied
CC1(C)[C@@H](O)CC[C@]2(C)[C@H]3C(=O)C=C4[C@@H]5C[C@@](C)(C(=O)O)CC[C@]5(C)CC[C@@]4(C)[C@]3(C)CC[C@@H]12
Satisfied
O=c1cc(-c2ccccc2)oc2cc(O)c(O)c(O)c12
Not satisfied

Identify whether the reported half-life of the following compound is 10 h or greater: "CC1(C)O[C@H]1COc1c2ccoc2cc2oc(=O)ccc12"
Satisfied

Does C=C1CCC[C@]2(C)C[C@]3(O)OC(=O)C(C)=C3C[C@@H]12 [Atractylenolide III, atractylenolide III] have a reported half-life of at least 10 h?
Satisfied

Quick check: does "CC1(C)[C@@H](O[C@H]2O[C@H](C(=O)O)[C@@H](O)[C@H](O)[C@H]2O[C@@H]2O[C@H](C(=O)O)[C@@H](O)[C@H](O)[C@H]2O)CC[C@]2(C)[C@H]3C(=O)C=C4[C@@H]5C[C@@](C)(C(=O)O)CC[C@]5(C)CC[C@@]4(C)[C@]3(C)CC[C@@H]12" have half-life greater than or equal to 10 h?
Satisfied

---

assay type: in vivo, human; conditions: male, human, plasma, po, 9.6 g
endpoint: Vd/F (L)
Dear colleague, please return just the value in L, with no unit written.

C=C1CCC[C@]2(C)C[C@]3(O)OC(=O)C(C)=C3C[C@@H]12 [Atractylenolide III, atractylenolide III]
26.2
CC1(C)[C@@H](O[C@H]2O[C@H](C(=O)O)[C@@H](O)[C@H](O)[C@H]2O[C@@H]2O[C@H](C(=O)O)[C@@H](O)[C@H](O)[C@H]2O)CC[C@]2(C)[C@H]3C(=O)C=C4[C@@H]5C[C@@](C)(C(=O)O)CC[C@]5(C)CC[C@@]4(C)[C@]3(C)CC[C@@H]12
5860

Let us move to another entry and its Vd/F.
Endpoint output: Vd/F of "CC1(C)O[C@H]1COc1c2ccoc2cc2oc(=O)ccc12" . Value?
275

---

assay type: in vivo, human; settings: male, human, plasma, po, 9.6 g
endpoint: AUC(0-inf) (ng·h/mL)
Give a bare numeral; the unit ng·h/mL is implied.

Illustrative cases are given below, each with its answer.
O=c1ccc2cc3ccoc3c(O)c2o1
110
CC1(C)O[C@H]1COc1c2ccoc2cc2oc(=O)ccc12
449
O=c1cc(-c2ccccc2)oc2cc(O)c(O)c(O)c12
540

Give the measured AUC(0-inf) of "CC1(C)[C@@H](O[C@H]2O[C@H](C(=O)O)[C@@H](O)[C@H](O)[C@H]2O[C@@H]2O[C@H](C(=O)O)[C@@H](O)[C@H](O)[C@H]2O)CC[C@]2(C)[C@H]3C(=O)C=C4[C@@H]5C[C@@](C)(C(=O)O)CC[C@]5(C)CC[C@@]4(C)[C@]3(C)CC[C@@H]12" .
67.6

If you can, please state the reported AUC(0-inf) value of "CC1(C)[C@@H](O)CC[C@]2(C)[C@H]3C(=O)C=C4[C@@H]5C[C@@](C)(C(=O)O)CC[C@]5(C)CC[C@@]4(C)[C@]3(C)CC[C@@H]12" .
988

For C=C1CCC[C@]2(C)C[C@]3(O)OC(=O)C(C)=C3C[C@@H]12 [Atractylenolide III, atractylenolide III] , what is its reported AUC(0-inf)?
417
